- Tested on: Goosegrass
- test.name: Test C pre-/postemergence test
- Type: in vivo, Eleusin indica
- condition.set: Postemergence, 125 g ai/ha; scale 0 to 100, 0 no effect, 100 complete control
measurement.type: Plant response rating, Goosegrass
In your answer, state the number alone without any accompanying words.

Cn1nc(C(F)(F)F)c(C[S+]([O-])c2ccc(F)c[n+]2[O-])c1OCC(F)(F)F (centres unmarked) [Compound 67]; 50
Cn1nc(C(F)(F)F)c(C[S+]([O-])c2ccc(Cl)c[n+]2[O-])c1OCC(F)(F)F (racemic) [Compound 62]; 10
Cn1nc(C(F)(F)F)c(C[S+]([O-])c2cccc[n+]2[O-])c1OCC(F)(F)C(F)(F)F (centres unmarked) [Compound 78]; 10

// sample CCn1nc(C(F)(F)F)c(CS(=O)(=O)c2cc(C)cc[n+]2[O-])c1OCC(F)(F)F [Compound 64] , its Plant response rating, Goosegrass was 0

Value of measured Plant response rating, Goosegrass for the entry CCn1nc(C(F)(F)F)c(C[S+]([O-])c2cccc[n+]2[O-])c1OCC(F)(F)F (racemic) [Compound 65] : 0

###

- System: umbrella sedge
- test.name: Test C flooded paddy test
- Format: in vivo, Cyperus difformis
- condition.set: Flood, 31 g ai/ha; scale 0 to 100 (0 no effect, 100 complete control)
Listed below: Plant response rating, Sedge, Umbrella values for each entry.
Form field (numeric): enter value without unit.

Known Plant response rating, Sedge, Umbrella results, listed for orientation:
Cc1cc[n+]([O-])c(S(=O)(=O)Cc2c(C(F)(F)F)nn(C)c2OCC(F)(F)F)c1 [Compound 31]; 65
Cc1ccc[n+]([O-])c1S(=O)(=O)Cc1c(C(F)(F)F)nn(C)c1OC(F)F [Compound 113]; 0

For record Cc1cc[n+]([O-])c([S+]([O-])Cc2c(C(F)(F)F)nn(C)c2OCC(F)(F)F)c1 (racemic) [Compound 30] the listed Plant response rating, Sedge, Umbrella is 80

GET /value?item= Cc1cc[n+]([O-])c(S(=O)(=O)C(C)c2c(C(F)(F)F)nn(C)c2OC(F)F)c1 (stereo not shown) [Compound 11] &field=Plant response rating, Sedge, Umbrella returns 0

###

- System: green foxtail
- test.name: Test C pre-/postemergence test
- Type: in vivo, Setaria viridis
- condition.set: preemergence, 250 g ai/ha; scale 0 (no effect) to 100 (complete control)
measurement.type: Foxtail, Green plant response rating

Use the examples below as a reference point.
Cn1nc(C(F)(F)C(F)(F)F)c(C[S+]([O-])c2ccc(Cl)c[n+]2[O-])c1OCC(F)(F)F (stereo not shown) [Compound 92]; 100
Cc1cc[n+]([O-])c(S(=O)(=O)C(Cl)c2c(C(F)(F)F)nn(C)c2OCC(F)(F)F)c1 (racemic) [Compound 37]; 100
Cc1cc([S+]([O-])Cc2c(C(F)(F)F)nn(C)c2OCC(F)(F)F)[n+]([O-])cc1Cl (stereo not shown) [Compound 70]; 100
CCn1nc(C(F)(F)F)c(C[S+]([O-])c2cccc[n+]2[O-])c1OCC(F)(F)F (racemic) [Compound 65]; 100
Cn1nc(C(F)(F)F)c(C[S+]([O-])c2cc(Br)cc[n+]2[O-])c1Cl (racemic) [Compound 35]; 100

compound Cn1nc(C(F)(F)F)c(C[S+]([O-])c2cc(F)cc[n+]2[O-])c1Cl (racemic) [Compound 42] , Foxtail, Green plant response rating observed: 100

Cn1nc(C(F)(F)F)c(C(Cl)S(=O)(=O)c2cccc[n+]2[O-])c1OC(F)F (stereo not shown) [Compound 51] has a reported Foxtail, Green plant response rating of 100

###

- Test system: common purslane
- test.name: Test F preemergence test
- Assay type: in vivo, Portulaca oleracea
- condition.set: 125 g ai/ha, preemergence, scale 0 to 100
measurement.type: Purslane plant response rating
In your answer, state the number alone without any accompanying words.

Examples from the recorded data:
CC(Oc1c(C[S+]([O-])c2cccc[n+]2[O-])c(C(F)(F)F)nn1C)C(F)(F)F (stereo not drawn) [Compound 77]; 65
CCn1nc(C(F)(F)F)c(CS(=O)(=O)c2cc(C)cc[n+]2[O-])c1OCC(F)(F)F [Compound 64]; 60
Cn1nc(C(F)(F)C(F)(F)F)c(C[S+]([O-])c2cccc[n+]2[O-])c1OCC(F)(F)F (stereo not drawn) [Compound 79]; 100

// Purslane plant response rating lookup, molecule = Cn1nc(C(F)(F)F)c(CS(=O)(=O)c2cccc[n+]2[O-])c1OCC(F)(F)F [Compound 29] , result: 30

Briefly, Purslane plant response rating measured for CC(Oc1c(C[S+]([O-])c2ccc(Cl)c[n+]2[O-])c(C(F)(F)F)nn1C)C(F)(F)F (stereo not drawn) [Compound 87] : 100

Kindly note the recorded Purslane plant response rating for Cn1nc(C(F)(F)F)c(C[S+]([O-])c2ccc(Cl)c[n+]2[O-])c1OCC(F)F (stereo not drawn) [Compound 85] , which is 60

###

# maps each entry to its Plant response rating, Ryegrass, Italian
- Tested on: Italian ryegrass
- test.name: Test F preemergence test
- Format: in vivo, Lolium multiflorum
- condition.set: Preemergence; 31 g ai/ha; scale 0 to 100

Here are 2 compounds together with their reported answers.
Cn1nc(C(F)(F)F)c(C[S+]([O-])c2ccc(Cl)c[n+]2[O-])c1OCC(F)(F)F (racemic) [Compound 62]; 98
Cc1cc[n+]([O-])c(S(=O)(=O)Cc2c(C(F)(F)F)nn(C)c2OC(F)F)c1 [Compound 2]; 20

Next up:
The reported Plant response rating, Ryegrass, Italian of the compound Cc1cc[n+]([O-])c(S(=O)(=O)C(Cl)c2c(C(F)(F)F)nn(C)c2Cl)c1 (racemic) [Compound 22] was 20

###

- Tested on: common groundsel
- test.name: Test F preemergence test
- Type: in vivo, Senecio vulgaris
- condition.set: 62 g ai/ha, Preemergence; scale 0 to 100
measurement.type: Groundsel plant response rating
Simply state the number, no unit and no words.

Groundsel plant response rating reported for this compound Cc1cc[n+]([O-])c([S+]([O-])Cc2c(C(F)(F)F)nn(C)c2Cl)c1 (racemic) : 0

Record summary for CC(c1c(C(F)(F)F)nn(C)c1OC(F)F)S(=O)(=O)c1cccc[n+]1[O-] (stereo not drawn) : reported Groundsel plant response rating = 100

# Groundsel plant response rating of Cn1nc(C(F)(F)F)c(C[S+]([O-])c2ccc(Cl)c[n+]2[O-])c1OC(F)F (stereo not drawn) = 75

###

Parameter Field Bindweed plant response rating: see the listing below.
- Tested on: field bindweed
- test.name: Test F preemergence test
- Format: in vivo, Convolvulus arvensis
- condition.set: 125 g ai/ha, preemergence, scale 0 to 100
Output spec: single numeric token, no unit.

Solved cases below.
Cc1cc[n+]([O-])c(S(=O)(=O)Cc2c(C(F)(F)F)nn(C)c2Cl)c1 [Compound 19]; 15
CC(Oc1c(CS(=O)(=O)c2cccc[n+]2[O-])c(C(F)(F)F)nn1C)C(F)(F)F (stereo not drawn) [Compound 82]; 0
Cc1cc[n+]([O-])c(S(=O)(=O)Cc2c(C(F)(F)F)nn(C)c2OCC(F)(F)F)c1 [Compound 31]; 70
Cc1cc([S+]([O-])Cc2c(C(F)(F)F)nn(C)c2OCC(F)(F)F)[n+]([O-])cc1Cl (stereo not drawn) [Compound 70]; 40
CCc1cc[n+]([O-])c(S(=O)(=O)Cc2c(C(F)(F)F)nn(C)c2OCC(F)(F)F)c1 [Compound 60]; 50
Cn1nc(C(F)(F)F)c(C[S+]([O-])c2ccc(F)c[n+]2[O-])c1OCC(F)(F)F (stereo not drawn) [Compound 67]; 80
CC(c1c(C(F)(F)F)nn(C)c1OCC(F)(F)F)S(=O)(=O)c1cccc[n+]1[O-] (racemic) [Compound 33]; 60
CCn1nc(C(F)(F)F)c(CS(=O)(=O)c2cc(C)cc[n+]2[O-])c1OCC(F)(F)F [Compound 64]; 40

Shift focus to the following entry.
Notebook: Cn1nc(C(F)(F)F)c(C[S+]([O-])c2ccc(Cl)c[n+]2[O-])c1OCC(F)F (stereo not drawn) [Compound 85] , Field Bindweed plant response rating read as 35

###

- Test system: Surinam grass
- test.name: Test C pre-/postemergence test
- Assay type: in vivo, Brachiaria decumbens
- condition.set: Postemergence, 250 g ai/ha; scale 0 to 100, 0 no effect, 100 complete control
measurement.type: Plant response rating, Surinam Grass
Reply briefly: the number, and no unit.

Cn1nc(C(F)(F)F)c(C[S+]([O-])c2ccc(F)c[n+]2[O-])c1OCC(F)(F)F (stereo not drawn) [Compound 67]; 45
Cn1nc(C(F)(F)F)c(C[S+]([O-])c2ccc(Cl)c[n+]2[O-])c1OCC(F)(F)F (racemic) [Compound 62]; 60

Surinam grass assay, compound Cn1nc(C(F)(F)F)c(C[S+]([O-])c2cccc[n+]2[O-])c1OCC(F)(F)C(F)(F)F (stereo not drawn) [Compound 78] , recorded Plant response rating, Surinam Grass = 70

Record Cc1cc[n+]([O-])c([S+]([O-])Cc2c(C(F)(F)F)nn(C)c2OC(F)F)c1 (stereo not drawn) [Compound 1] ; system Surinam grass; Plant response rating, Surinam Grass = 60

Known value: Surinam grass Plant response rating, Surinam Grass of the compound [O-][n+]1cc(Cl)ccc1[S+]([O-])Cc1c(C(F)(F)F)nn(CC(F)(F)F)c1Cl (stereo not drawn) [Compound 47] equals 60

Readout Plant response rating, Surinam Grass for Cc1cc[n+]([O-])c(S(=O)(=O)Cc2c(C(F)(F)F)nn(C)c2OC(F)F)c1 [Compound 2] , test system Surinam grass, was 0
